Below, each entry is listed alongside its reported melting point.

# count of solved cases: 3
CC(C)(C)c1ccc(COC2(c3ccccc3)c3ccccc3C(=O)N2Cc2ccccc2)cc1 (stereo not shown) [NU8113] = 107 to 108 °C
CCCN1C(=O)c2ccccc2C1(OCc1ccc(C(C)(C)C)cc1)c1ccc(Cl)cc1 (stereo not shown) [NU8221] = 116.5 to 117.6 °C
CCCN1C(=O)c2ccccc2C1(OCCc1ccccn1)c1ccccc1 (stereo not shown) [NU8224] = 122.3 to 124.1 °C

Next:
So what does the record say about melting point for CCCN1C(=O)c2ccccc2C1(OCc1ccc(C(C)(C)C)cc1)c1ccccc1 (stereo not shown) [NU8223] ? 118.7 to 119.9 °C
